ASSAY_SYSTEM: Cytochrome P450 3A4 (Homo sapiens) (UniProt P08684)
Sequence (P08684 whole entry, looked up): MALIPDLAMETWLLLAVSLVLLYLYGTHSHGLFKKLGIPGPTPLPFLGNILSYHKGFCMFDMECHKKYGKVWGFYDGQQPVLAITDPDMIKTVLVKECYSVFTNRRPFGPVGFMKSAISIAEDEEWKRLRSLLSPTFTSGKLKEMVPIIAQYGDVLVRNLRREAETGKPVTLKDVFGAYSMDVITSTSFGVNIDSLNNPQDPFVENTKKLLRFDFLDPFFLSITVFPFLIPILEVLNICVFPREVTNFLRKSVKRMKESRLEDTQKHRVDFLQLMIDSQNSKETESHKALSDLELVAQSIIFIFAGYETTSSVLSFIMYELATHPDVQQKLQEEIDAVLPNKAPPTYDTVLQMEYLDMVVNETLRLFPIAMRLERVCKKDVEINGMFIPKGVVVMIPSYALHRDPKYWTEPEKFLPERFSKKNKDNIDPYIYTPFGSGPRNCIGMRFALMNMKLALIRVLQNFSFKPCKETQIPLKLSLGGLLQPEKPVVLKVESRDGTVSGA
PROTOCOL_DETAILS: Cytochrome panel assay with activity outcomes; as to activity, negative = inhibition: % is scaled to controls: 0 for no effect and ±100 for the full control effect
ASSAY_SETUP: recombinant CYP, pro-luciferin dealkylation, luminescence, p450-cyp3a4; series mostly up to 57.1 µM
Protocol: The P450 gene superfamily is involved in the metabolism and clearance of xenobiotics. This assay used various human CYP P450 isozymes to measure the dealkylation of various pro-luciferin substrates to luciferin. The luciferin is then measured by luminescence after the addition of a luciferase detection reagent. […] Inhibitors and some substrates limit the production of luciferin, and decrease measured luminescence. […] 8, Detection, 1 sec, ViewLux luminescent read […]
Among all 16,000 compounds or so, about 5,100 (32%) were called active. Roughly 25% stayed inconclusive and do not appear here. The list shows a part of the results.
VALUE_KIND: activity, negative = inhibition

Recorded result, O=C(Nc1cccc(OC(=O)c2ccco2)c1)c1ccco1 , activity, negative = inhibition: 3.14% [at 11.4 µM] (inactive)

Recorded result, COn1c(SC(C)C)nc2ccccc2c1=O , activity, negative = inhibition: 5.93% [at 11.4 µM] (inactive)

Recorded result, O=C(NCc1cccnc1)[C@@H]1[C@@H](C(=O)O)[C@H]2CC[C@@H]1O2 , activity, negative = inhibition: -23.9% [at 11.4 µM] (inactive)

Recorded result, O=C(NNC(=O)c1cc(-c2ccc(Cl)c(Cl)c2)nc2ccccc12)Nc1ccccc1 , activity, negative = inhibition: -6.22% [at 2.29 µM] (inactive)

Recorded result, N/N=C1/c2ccccc2N[C@H]1OC(=O)Nc1ccccc1 , activity, negative = inhibition: -29.3% [at 11.4 µM] (inactive)

Recorded result, OC[C@H](S)CS , activity, negative = inhibition: -9.69% [at 11.4 µM] (inactive)

Recorded result, CCOC(=O)c1c(-c2ccc(C)cc2)csc1NC(=O)C1CC=CCC1C(=O)O (configuration not stated) , activity, negative = inhibition: -2.99% [at 2.29 µM] (inactive)

Recorded result, C/C(=N/O)[C@@H]1C[C@H](CC(=O)O)C1(C)C , activity, negative = inhibition: -25.4% [at 11.4 µM] (inactive)

Recorded result, CCCCCC/C(C)=C1/SC(=S)NC1=O , activity, negative = inhibition: -11.2% [at 2.29 µM] (inactive)

Recorded result, CN(C)S(=O)(=O)Nc1ccccn1 , activity, negative = inhibition: -8.58% [at 11.4 µM] (inactive)

Recorded result, CC1(C)N=C(N)N=C(N)N1c1cccc(OCc2cccc([N+](=O)[O-])c2)c1 , activity, negative = inhibition: -3.23% [at 11.4 µM] (inactive)

Recorded result, N#CC(c1ccc(Cl)cc1)c1nc2ccccc2nc1C(F)(F)F (configuration not stated) , activity, negative = inhibition: 15.3% [at 2.29 µM] (inactive)

----------
ASSAY_SYSTEM: Cytochrome P450 3A4 (Homo sapiens)
PROTOCOL_DETAILS: Cytochrome panel assay with activity outcomes
ASSAY_SETUP: recombinant CYP, pro-luciferin dealkylation, luminescence, p450-cyp3a4; series mostly up to 57.1 µM
Among all 16,000 compounds or so, about 5,100 (32%) were called active. Inconclusive results (about 25%) are left out. Calls follow the shape of the dose curve; as a rule, active = well fitted curve in the direction sought with a large enough effect; inconclusive = small, poorly fitted or top-dose-only effect, or effect the other way; inactive = no such curve, though single readings can be large or run the other way. The list shows a part of the results.
Give your call using only these classes: y for active, n for inactive

Any idea what this test logged for COCCNc1ncnc2ccc(-c3ccc(C(=O)N(C)C)cc3)cc12 ?
y

Any idea what this test logged for Cc1cc(Br)cc(C)c1OCCCCN(C)C ?
n

Any idea what this test logged for O=c1ccc(Oc2nc(N3CCOCC3)nc(N3CCOCC3)n2)n[nH]1 ?
n

Any idea what this test logged for C=CCNCCCCOc1c(Cl)cc(C)cc1Br ?
y

Any idea what this test logged for O=C(NCc1ccco1)c1cc(C(=O)C2CCCCC2)c[nH]1 ?
n

Any idea what this test logged for O=C(CCNc1cccc(Cl)c1)c1cccs1 ?
y

Any idea what this test logged for O=C(NCc1ccco1)c1cc(C(=O)C2CC2)c[nH]1 ?
n

Any idea what this test logged for Nc1cccc2cnccc12 ?
y

Any idea what this test logged for O=C(NOC(=O)c1cc(Br)ccc1Cl)c1cccs1 ?
n

Any idea what this test logged for Cc1ccccc1-c1ccc2ncnc(-n3ccnc3)c2c1 ?
y

Any idea what this test logged for NCCCNCCCCNCCCN ?
n

Any idea what this test logged for COc1ccc(C(=O)OC(C)CN2CCN(C)CC2)cc1OC (stereo not drawn) ?
n

Any idea what this test logged for O=S(=O)(c1ccc(Cl)cc1)c1cnc(-c2cccnc2)nc1-c1ccccc1 ?
y

----------
ASSAY_SYSTEM: Cytochrome P450 3A4 (Homo sapiens) (UniProt P08684)
PROTOCOL_DETAILS: Cytochrome panel assay with activity outcomes; as to activity, negative = inhibition: % is scaled to controls: 0 for no effect and ±100 for the full control effect
ASSAY_SETUP: recombinant CYP, pro-luciferin dealkylation, luminescence, p450-cyp3a4; series mostly up to 57.1 µM
Method: The P450 gene superfamily is involved in the metabolism and clearance of xenobiotics. This assay used various human CYP P450 isozymes to measure the dealkylation of various pro-luciferin substrates to luciferin. The luciferin is then measured by luminescence after the addition of a luciferase detection reagent. […] Inhibitors and some substrates limit the production of luciferin, and decrease measured luminescence. […] 8, Detection, 1 sec, ViewLux luminescent read […]
Among all 16,000 compounds or so, about 5,100 (32%) were called active. Roughly 25% stayed inconclusive and do not appear here. This is one part of the list.
VALUE_KIND: activity, negative = inhibition

Entry Cc1ccc(OC(=O)c2cccc(C(=O)Oc3ccc(C)cc3)n2)cc1 : activity, negative = inhibition on Cytochrome P450 3A4 (Homo sapiens) (UniProt P08684) = 6.37% [at 11.4 µM] (inactive)

Entry O=C(O)CSc1cc(-c2ccccc2)nc2ccccc12 : activity, negative = inhibition on Cytochrome P450 3A4 (Homo sapiens) (UniProt P08684) = -1.98% [at 11.4 µM] (inactive)

Entry O=C(O)CN(CCN(CC(=O)O)CC(=O)O)CC(=O)O.[Cu] : activity, negative = inhibition on Cytochrome P450 3A4 (Homo sapiens) (UniProt P08684) = 10.2% [at 11.4 µM] (inactive)

Entry OC[C@@H]1O[C@H](n2cnc3c(/C=C(\O)c4ccccc4)ncnc32)[C@H](O)[C@@H]1O : activity, negative = inhibition on Cytochrome P450 3A4 (Homo sapiens) (UniProt P08684) = -15.3% [at 11.4 µM] (inactive)

Entry O=S(=O)(C[C@H](O)C(Cl)(Cl)Cl)NNc1ccccc1 : activity, negative = inhibition on Cytochrome P450 3A4 (Homo sapiens) (UniProt P08684) = -15.6% [at 11.4 µM] (inactive)

Entry CCNc1nnc(-c2ccncc2)s1 : activity, negative = inhibition on Cytochrome P450 3A4 (Homo sapiens) (UniProt P08684) = -14.1% [at 11.4 µM] (inactive)

----------
ASSAY_SYSTEM: Cytochrome P450 3A4 (Homo sapiens)
PROTOCOL_DETAILS: Cytochrome panel assay with activity outcomes
ASSAY_SETUP: recombinant CYP, pro-luciferin dealkylation, luminescence, p450-cyp3a4; series mostly up to 57.1 µM
Description: The P450 gene superfamily is involved in the metabolism and clearance of xenobiotics. This assay used various human CYP P450 isozymes to measure the dealkylation of various pro-luciferin substrates to luciferin. The luciferin is then measured by luminescence after the addition of a luciferase detection reagent. […] Inhibitors and some substrates limit the production of luciferin, and decrease measured luminescence. […] 8, Detection, 1 sec, ViewLux luminescent read […]
The whole screen tested about 16,000 compounds, of which about 5,100 (32%) were called active. Another 25% or so got no clear call; they are omitted. Calls come from the whole dose curve; as a rule, active = well fitted curve in the direction sought with a large enough effect; inconclusive = small, poorly fitted or top-dose-only effect, or effect the other way; inactive = no such curve, though single readings can be large or run the other way. The list shows a part of the results.
Give your call using only these classes: y = active, n = inactive

Any idea what this test logged for Cc1onc(-c2ccccc2Cl)c1C(=O)Nc1nnc(Cc2ccc(Cl)cc2)s1 ?
y

Any idea what this test logged for Cc1c(NC(=S)/C=C2\N(C)c3ccccc3C2(C)C)c(=O)n(-c2ccccc2)n1C ?
y

Any idea what this test logged for O=C(Nc1ccccc1)c1cc(-c2ccccc2Cl)no1 ?
n

Any idea what this test logged for C/C(CCN1CCCCc2nc(C)c(C)cc21)=N\O[C@@H](C)CN1CCCCc2nc(C)c(C)cc21 ?
y

Any idea what this test logged for CCCC(=O)Nc1cc(-c2cn3cccnc3n2)ccc1OC ?
n

Any idea what this test logged for CCOC(=O)c1cnn(-c2nc(-c3ccc(F)cc3)cs2)c1C(F)(F)F ?
n

Any idea what this test logged for COc1cc(OC)c(C#N)c(S(=O)(=O)Cc2ccccc2)c1 ?
y

Any idea what this test logged for Fc1ccc(-c2cnc(-c3cccs3)o2)cc1 ?
n

Any idea what this test logged for Cc1c(NC(=S)N/N=C/c2ccc(O)cc2)c(=O)n(-c2ccccc2)n1C ?
n

Any idea what this test logged for COc1ccc(Cn2nnnc2C(c2ccccc2Cl)N2CCC(C(N)=O)CC2)cc1 (stereo not given) ?
y
